- System: H3255
- Assay: relative viability (nuclei count vs DMSO), 5 days (fraction); higher = more cells survive
- Experimental setup: first compound 2.53 µM
Quantity kind: relative viability

Give its relative viability value. Item: O=c1cc(-c2cccc3c2Sc2ccccc2S3)oc(N2CCOCC2)c1 + C[C@]1(O)C[C@@H](c2nc(-c3ccc4ccc(-c5ccccc5)nc4c3)c3c(N)nccn32)C1 [Linsitinib] (partner 1 µM) 0.865

Using the record for O=c1cc(-c2cccc3c2Sc2ccccc2S3)oc(N2CCOCC2)c1 + O=C(CCCCCCC(=O)Nc1ccccc1)NO [Vorinostat] (partner 1 µM) , report its relative viability. 0.878

What does the record list as relative viability for COc1nc(C)cnc1NS(=O)(=O)c1cccnc1-c1ccc(-c2nnco2)cc1 [Zibotentan] + O=C(CCCCCCC(=O)Nc1ccccc1)NO [Vorinostat] (partner 1 µM) ? 0.778

====

- System: SW 900
- Assay: relative viability (nuclei count vs DMSO), 5 days (fraction); higher = more cells survive
- Experimental setup: first compound 6.325 µM
Quantity kind: relative viability
Could you respond with only the numeric value?

May I ask what relative viability has been recorded for COCC1(CO)C(=O)C2CCN1CC2 (stereo not given) [PRIMA-1MET] + CCNC(=O)c1noc(-c2cc(C(C)C)c(O)cc2O)c1-c1ccc(CN2CCOCC2)cc1 [Luminespib] (partner 0.01 µM) ? 0.136

Look up relative viability for this compound: COCC1(CO)C(=O)C2CCN1CC2 (stereo not given) [PRIMA-1MET] + CC(=O)Nc1cccc(-n2c(=O)n(C3CC3)c(=O)c3c(Nc4ccc(I)cc4F)n(C)c(=O)c(C)c32)c1 [Trametinib] (partner 0.02 µM) 0.676

What relative viability value was documented for this compound, COCC1(CO)C(=O)C2CCN1CC2 (stereo not given) [PRIMA-1MET] + COc1cc2c(Oc3ccc(NC(=O)C4(C(=O)Nc5ccc(F)cc5)CC4)cc3F)ccnc2cc1OCCCN1CCOCC1 [Foretinib] (partner 0.25 µM) ? 0.451

// query relative viability value for entry COCC1(CO)C(=O)C2CCN1CC2 (stereo not given) [PRIMA-1MET] + O=C(CCCCCCC(=O)Nc1ccccc1)NO [Vorinostat] (partner 1 µM) 0.504

Would you kindly share the measured relative viability for COCC1(CO)C(=O)C2CCN1CC2 (stereo not given) [PRIMA-1MET] + Cc1cc(Nc2cc(N3CCN(C)CC3)nc(Sc3ccc(NC(=O)C4CC4)cc3)n2)n[nH]1 [Tozasertib] (partner 0.1 µM) ? 0.388

====

Please provide measured relative viability for the entries that follow.
- Test system: SW 1573
- Assay: relative viability (nuclei count vs DMSO), 5 days (fraction); higher = more cells survive
- Experimental setup: first compound 0.3162 µM
Give the figure by itself; no unit, no explanation.

Quick check: relative viability of CCN(CC)CCCCNc1ncc2cc(-c3cc(OC)cc(OC)c3)c(NC(=O)NC(C)(C)C)nc2n1 + Nc1ncn([C@H]2C[C@H](O)[C@@H](CO)O2)c(=O)n1 [Decitabine] (partner 2 µM) ? 0.591

Give the measured relative viability of O=c1cc(N2CCOCC2)oc2c(-c3cccc4c3sc3ccccc34)cccc12 + Cc1nc(NC(=O)N2CCC[C@H]2C(N)=O)sc1-c1ccnc(C(C)(C)C(F)(F)F)c1 [Alpelisib] (partner 2 µM) . 0.735

Requested field: relative viability. Item: O=c1cc(N2CCOCC2)oc2c(-c3cccc4c3sc3ccccc34)cccc12 + Nc1ncn([C@H]2C[C@H](O)[C@@H](CO)O2)c(=O)n1 [Decitabine] (partner 2 µM) 0.409

Give its relative viability value. Item: CCN(CC)CCCCNc1ncc2cc(-c3cc(OC)cc(OC)c3)c(NC(=O)NC(C)(C)C)nc2n1 + N=C(N)NC(=N)NCCc1ccccc1 [Phenformin] (partner 250 µM) 0.36

Looking for the measured relative viability of CCN(CC)CCCCNc1ncc2cc(-c3cc(OC)cc(OC)c3)c(NC(=O)NC(C)(C)C)nc2n1 + O=C(c1cc(Cc2n[nH]c(=O)c3ccccc23)ccc1F)N1CCN(C(=O)C2CC2)CC1 [Olaparib] (partner 8 µM) , can you help? 0.522
